- Tested system: UniProt:Q8NE63
- Sequence (Q8NE63 whole entry, species assumed): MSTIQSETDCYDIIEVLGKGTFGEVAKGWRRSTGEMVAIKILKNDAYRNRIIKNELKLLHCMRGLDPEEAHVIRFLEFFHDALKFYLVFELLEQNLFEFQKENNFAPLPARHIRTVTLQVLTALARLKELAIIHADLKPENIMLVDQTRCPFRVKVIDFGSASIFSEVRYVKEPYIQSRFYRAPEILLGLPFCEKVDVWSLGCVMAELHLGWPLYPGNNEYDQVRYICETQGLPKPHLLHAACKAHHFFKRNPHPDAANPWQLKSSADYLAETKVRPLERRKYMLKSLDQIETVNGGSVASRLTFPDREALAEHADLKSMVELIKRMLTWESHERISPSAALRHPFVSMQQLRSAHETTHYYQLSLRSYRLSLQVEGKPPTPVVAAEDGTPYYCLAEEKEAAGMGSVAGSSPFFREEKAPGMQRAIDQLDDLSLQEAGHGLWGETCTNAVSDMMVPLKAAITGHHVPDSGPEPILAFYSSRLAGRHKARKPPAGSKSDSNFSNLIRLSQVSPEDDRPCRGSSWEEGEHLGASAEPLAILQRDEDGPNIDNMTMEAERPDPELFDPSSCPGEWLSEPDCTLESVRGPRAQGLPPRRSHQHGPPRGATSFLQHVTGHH
- Test protocol: Kinase electrophoretic mobility shift assay, HIPK4
- Format: biochemical
- Measurement parameters: compounds tested at 10 μM, average of n = 2, ATP at apparent Km; read-out: HIPK4 activity (percent inhibition)
Metric: inhibition at 10 µM

Check out these entries, answers already filled in.
> print(dat)
                                   molecule  test.value
1  CC1(C)CNC(=O)c2cc3cnc(N[C@H]4CC[C@H](O)CC4)nc3n21 [Compd 4]       > 90%
2  Cc1ccccc1-c1c2n(c3nc(N[C@H]4CC[C@H](O)CC4)ncc13)CCNC2=O [Compd 2]       < 50%
3  CCC1Cn2c(cc3cnc(N[C@H]4CC[C@H](O)CC4)nc32)C(=O)N1 (stereo partly shown) [Compd 5]       > 90%

Asked: For the record O=C1NCC2(CCCC2)n2c1cc1cnc(N[C@H]3CC[C@H](O)CC3)nc12 [Compd 7] , what value of inhibition at 10 µM is listed for UniProt:Q8NE63?
Given back: > 90%

Asked: Form field: inhibition at 10 µM recorded for Cc1ccccc1-c1c2n(c3nc(Nc4ccc(N5CCOCC5)cc4)ncc13)CCNC2=O [Compd 1] with UniProt:Q8NE63 (enter value)
Given back: < 50%

Asked: What reported inhibition at 10 µM corresponds to O=C1NCCn2c1cc1cnc(N[C@H]3CC[C@H](O)CC3)nc12 [Compd 3] on UniProt:Q8NE63?
Given back: 71 to 90%

Asked: Item: O=C1NC2(CCCC2)Cn2c1cc1cnc(N[C@H]3CC[C@H](O)CC3)nc12 [Compd 6] Test system: UniProt:Q8NE63 Read-out: inhibition at 10 µM Value: ?
Given back: > 90%
